Numbers sourced from paper PMC4072508.

# Study system: T1, Bcl-w, Q92843
# T1 chain: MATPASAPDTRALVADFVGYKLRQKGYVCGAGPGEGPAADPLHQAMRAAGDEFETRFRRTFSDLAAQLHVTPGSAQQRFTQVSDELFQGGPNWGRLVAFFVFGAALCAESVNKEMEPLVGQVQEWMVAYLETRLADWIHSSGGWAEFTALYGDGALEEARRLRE
# Experiment description: peptide SPOT array, c-Myc-tagged receptor at 1 uM or 100 nM, anti-c-Myc-Cy3
Field 'label' (enum: true / false). Set to true when SPOT signal as a fraction of Bim BH3's signal on the same receptor and array is strictly under 0.2; else false.

Use the examples below as a reference point.
[
  {
    "Binder": "FMEKLDNGALLCQLAETMQEKFKESM [GAS2]",
    "Class name": "true"
  },
  {
    "Binder": "PRPLSILGNLLLLCSQDMLTSLTKLS [CYP2F1]",
    "Class name": "true"
  },
  {
    "Binder": "NKDGKSVSNRLRRLSDNCGGKVLSIT [KIAA0430]",
    "Class name": "false"
  },
  {
    "Binder": "KCRHEEVVQVLRNAGEEVTLTVSFLK [SNTG1]",
    "Class name": "true"
  }
]

Now let's try a different one.
State whether 0.2 exceeds SPOT signal as a fraction of Bim BH3's signal on the same receptor and array recorded for SVGGRGISSKLDSLADELKFVPIIGI [SACS] . true
